The following variants are shown together with reported polymerase ribozyme fitness (log ratio) values.
B1: TPR t1 (parent)
chain: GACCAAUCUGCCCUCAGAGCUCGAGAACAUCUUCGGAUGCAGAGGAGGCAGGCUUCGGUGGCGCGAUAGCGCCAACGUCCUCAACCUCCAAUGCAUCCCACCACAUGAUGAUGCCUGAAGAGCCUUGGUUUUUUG

variants of: B1; test: polymerase ribozyme fitness, log enrichment relative to wild type (log ratio); higher = more active; in vitro selection for triplet polymerase activity
# answer = number (no unit)

// known answers, use as guide
A41C G117U C123A C124G | -3.97
C3A G39U C114A U125G | -3.98

Fill in: polymerase ribozyme fitness (log ratio) of G44A C70U C89A A100U U133C is ___
-3.92
